Values from patent US20250289814A1

For each of the compounds below, state its IC50.
Test system: DLD1-BRCA2−/− cells
Test: Cell proliferation assay in DLD1-BRCA2−/− cell lines (CellTiter-Glo, 7 days)
Type: cell-based
Numbers only, in nM.

Compound: CCc1cc2ncc([C@H](C)N3CC[C@@H](Oc4ccc(C(=O)NC)nc4)C3)cc2[nH]c1=O (single isomer, unassigned)
System: DLD1-BRCA2−/− cells
Readout Name: IC50
Endpoint Value: 29.5
--
Compound: CNC(=O)c1ccc(O[C@@H]2CCN(Cc3cnc4cc(C5CC5)c(=O)[nH]c4c3)C2)cn1 (single isomer, unassigned) [Compound 61]
System: DLD1-BRCA2−/− cells
Readout Name: IC50
Endpoint Value: 40.7
--
Compound: CCc1nc2ccc([C@H](C)N3CC(Oc4ccc(C(=O)NC)nc4)C3)cc2[nH]c1=O (single isomer, unassigned)
System: DLD1-BRCA2−/− cells
Readout Name: IC50
Endpoint Value: 12.1
--
Compound: CCc1cc2ncc([C@@H](C)N3CC(Oc4ccc(C(=O)NC)nc4F)C3)cc2[nH]c1=O (single isomer, unassigned; enantiomer 2) [Compound 46]
System: DLD1-BRCA2−/− cells
Readout Name: IC50
Endpoint Value: 6.6
--
Compound: CCc1cc2ncc([C@@H](C)N3CC(Oc4ccc(C(=O)NC)nc4F)C3)cc2[nH]c1=O (single isomer, unassigned; enantiomer 1) [Compound 45]
System: DLD1-BRCA2−/− cells
Readout Name: IC50
Endpoint Value: 69.3

Hey, can you go through the list below and give me IC50 for every item?
1. CCc1cc2cnc([C@@H](C)N3CC(Oc4ccc(C(=O)NC)nc4)C3)cc2[nH]c1=O (single isomer, unassigned)
2. CCc1cc2ncc(CN3CC[C@@H](N(C)c4ccc(C(=O)NC)nc4)C3)cc2[nH]c1=O (single isomer, unassigned; enantiomer 2) [Compound 17]
3. CCc1cc2cnc([C@H](C)N3CC(Oc4ccc(C(=O)NC)nc4F)C3)cc2[nH]c1=O (single isomer, unassigned; enantiomer 2)

1. 21.9
2. 195
3. 7.2

---

System: Caco-2 cell monolayers
Assay: Caco2 (A-B/B-A) permeability
Assay type: in vitro ADME
Conditions: apical-to-basolateral, 5 μM, HBSS pH 7.4, 120 min, 37° C.
Readout Name: Caco2 A-B apparent permeability (Papp)

Compound: CCc1nc2ccc([C@H](C)N3CC(Oc4ccc(C(=O)NC)nc4)C3)cc2[nH]c1=O (single isomer, unassigned) [Compound 53]
Caco2 A-B apparent permeability (Papp): 13.2 10*−6 cm/s
--
Compound: CCc1cc2ncc([C@H](C)N3CC[C@@H](Oc4ccc(C(=O)NC)nc4)C3)cc2[nH]c1=O (single isomer, unassigned) [Compound 13]
Caco2 A-B apparent permeability (Papp): 3.85 10*−6 cm/s
--
Compound: CCc1cc2ncc([C@@H](C)N3CC(Oc4ccc(C(=O)NC)nc4F)C3)cc2[nH]c1=O (single isomer, unassigned; enantiomer 2) [Compound 46]
Caco2 A-B apparent permeability (Papp): 5.51 10*−6 cm/s

Would you mind giving Caco2 A-B apparent permeability (Papp) for every compound in the list below?
1. CCc1nc2ccc([C@H](C)N3CC(Oc4ccc(C(=O)NC)nc4F)C3)cc2[nH]c1=O (single isomer, unassigned) [Compound 57]
2. CCc1cc2cnc([C@@H](C)N3CC(Oc4ccc(C(=O)NC)nc4)C3)cc2[nH]c1=O (single isomer, unassigned) [Compound 48]
3. CCc1cc2cnc([C@H](C)N3CC(Oc4ccc(C(=O)NC)nc4F)C3)cc2[nH]c1=O (single isomer, unassigned; enantiomer 2) [Compound 50]

1. 12.25 10*−6 cm/s
2. 8.96 10*−6 cm/s
3. 3.84 10*−6 cm/s

---

Biological target: Recombinant full length PARP2 (Homo sapiens (Human))
Sequence (Q9UGN5 whole entry): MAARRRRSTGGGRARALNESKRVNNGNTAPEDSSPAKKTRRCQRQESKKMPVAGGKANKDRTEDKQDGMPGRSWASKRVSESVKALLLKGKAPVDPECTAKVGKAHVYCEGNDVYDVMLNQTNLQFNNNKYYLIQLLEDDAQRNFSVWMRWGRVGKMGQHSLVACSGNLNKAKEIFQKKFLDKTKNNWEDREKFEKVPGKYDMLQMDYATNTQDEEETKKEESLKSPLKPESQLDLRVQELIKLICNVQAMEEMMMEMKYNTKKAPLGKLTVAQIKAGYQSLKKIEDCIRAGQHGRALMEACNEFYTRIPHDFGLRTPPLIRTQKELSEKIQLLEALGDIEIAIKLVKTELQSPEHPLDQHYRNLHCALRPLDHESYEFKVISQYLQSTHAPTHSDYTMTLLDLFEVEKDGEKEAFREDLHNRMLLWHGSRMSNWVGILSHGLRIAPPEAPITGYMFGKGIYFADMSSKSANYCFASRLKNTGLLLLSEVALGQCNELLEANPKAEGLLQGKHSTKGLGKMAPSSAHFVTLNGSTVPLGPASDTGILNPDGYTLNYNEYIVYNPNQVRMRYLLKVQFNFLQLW
Assay: FP assay PARP2 (fluorescence anisotropy probe displacement)
Settings: 60 nM PARP2, 8 nM fluorescent probe, 4 h, room temperature
Readout Name: IC50

Molecule: CCc1cc2ncc(CN3CC[C@@H](Oc4ccc(C(=O)NC)nc4F)C3)cc2[nH]c1=O [Compound 29]
System: Recombinant full length PARP2 (Homo sapiens (Human))
IC50: > 10 µM
--
Molecule: CCc1cc2ncc([C@@H](C)N3CC(Oc4ccc(C(=O)NC)nc4F)C3)cc2[nH]c1=O (single isomer, unassigned; enantiomer 2) [Compound 46]
System: Recombinant full length PARP2 (Homo sapiens (Human))
IC50: 2.58 µM
--
Molecule: CCc1cc2ncc([C@@H](C)N3CC(Oc4ccc(C(=O)NC)nc4)C3)cc2[nH]c1=O [Compound 4]
System: Recombinant full length PARP2 (Homo sapiens (Human))
IC50: > 10 µM
--
Molecule: CNC(=O)c1ccc(O[C@@H]2CCN(Cc3cnc4cc(C5CC5)c(=O)[nH]c4c3)C2)cn1 (single isomer, unassigned) [Compound 61]
System: Recombinant full length PARP2 (Homo sapiens (Human))
IC50: > 10 µM
--
Molecule: CCc1cc2ncc(CN3CC[C@H](Oc4ccc(C(=O)NC)nc4)C3)cc2[nH]c1=O [Compound 58]
System: Recombinant full length PARP2 (Homo sapiens (Human))
IC50: > 10 µM
--
Molecule: CCc1cc2ncc(CN3CC(N(C)c4ccc(C(=O)NC)nc4)C3)cc2[nH]c1=O [Compound 3]
System: Recombinant full length PARP2 (Homo sapiens (Human))
IC50: > 10 µM

I would be grateful if you could provide IC50 for each of the following entries.
1. CCc1cc2cnc([C@H](C)N3CC(Oc4ccc(C(=O)NC)nc4F)C3)cc2[nH]c1=O (single isomer, unassigned; enantiomer 1) [Compound 49]
2. CCc1cc2cnc(C(C)N3CC(Oc4ccc(C(=O)NC)nc4)C3)cc2[nH]c1=O (stereo not drawn) [Compound 51]
3. CCc1nc2ccc(CN3CC[C@@H](Oc4ccc(C(=O)NC)nc4)C3)cc2[nH]c1=O [Compound 28]
4. CCc1nc2ccc(C(C)N3CC(Oc4ccc(C(=O)NC)nc4)C3)cc2[nH]c1=O (stereo not drawn) [Compound 20]

1. > 10 µM
2. 9.61 µM
3. > 10 µM
4. > 10 µM

---

Test system: DLD1-BRCA2−/− cells
Assay: Cell proliferation assay in DLD1-BRCA2−/− cell lines (CellTiter-Glo, 7 days)
Assay type: cell-based
Readout Name: pIC50
Answers are plain numbers, as −log10 of the molar value.

Compound: CCc1cc2ncc(CN3CC[C@@H](Cc4ccc(C(=O)NC)nc4)C3)cc2[nH]c1=O (single isomer, unassigned)
pIC50: 6.72

Turning now to a further compound:
Dear colleague, I am looking for the recorded pIC50 of the following compound: CCc1nc2ccc([C@H](C)N3CC(Oc4ccc(C(=O)NC)nc4F)C3)cc2[nH]c1=O (single isomer, unassigned)
8.04

---

Target: Recombinant full length PARP1 (Homo sapiens (Human))
Sequence (P09874 whole entry): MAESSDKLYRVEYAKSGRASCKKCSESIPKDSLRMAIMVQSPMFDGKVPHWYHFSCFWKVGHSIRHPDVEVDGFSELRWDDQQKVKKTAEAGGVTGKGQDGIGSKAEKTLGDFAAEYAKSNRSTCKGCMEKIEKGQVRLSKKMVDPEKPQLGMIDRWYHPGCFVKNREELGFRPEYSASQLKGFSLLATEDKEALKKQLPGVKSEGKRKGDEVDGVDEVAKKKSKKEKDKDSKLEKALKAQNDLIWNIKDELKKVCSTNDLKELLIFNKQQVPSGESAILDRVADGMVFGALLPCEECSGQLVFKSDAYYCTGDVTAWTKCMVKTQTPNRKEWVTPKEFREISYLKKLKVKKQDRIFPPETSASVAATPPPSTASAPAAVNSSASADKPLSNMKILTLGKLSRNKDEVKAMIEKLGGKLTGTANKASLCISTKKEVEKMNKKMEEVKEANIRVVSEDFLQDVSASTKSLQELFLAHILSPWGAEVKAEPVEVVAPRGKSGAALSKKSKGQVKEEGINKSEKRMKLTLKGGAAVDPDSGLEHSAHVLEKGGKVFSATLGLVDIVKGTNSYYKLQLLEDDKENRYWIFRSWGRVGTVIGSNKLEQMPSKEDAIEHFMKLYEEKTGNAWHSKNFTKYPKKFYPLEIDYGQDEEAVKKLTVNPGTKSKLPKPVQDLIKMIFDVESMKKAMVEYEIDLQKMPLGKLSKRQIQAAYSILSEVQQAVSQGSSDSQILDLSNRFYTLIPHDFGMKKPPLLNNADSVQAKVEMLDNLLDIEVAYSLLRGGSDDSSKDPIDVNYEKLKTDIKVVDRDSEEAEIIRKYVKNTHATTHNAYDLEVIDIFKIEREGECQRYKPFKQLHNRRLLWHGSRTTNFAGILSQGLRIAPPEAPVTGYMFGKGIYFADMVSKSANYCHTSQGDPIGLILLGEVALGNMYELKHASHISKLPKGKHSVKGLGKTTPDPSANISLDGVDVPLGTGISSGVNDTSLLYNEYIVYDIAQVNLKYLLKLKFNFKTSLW
Test: FP assay PARP1 (fluorescence anisotropy probe displacement)
Conditions: 20 nM PARP1, 8 nM fluorescent probe, 4 h, room temperature
Description: FP experiments were carried out at room temperature using no-binding black 384-well microplates. […] Fluorescence anisotropy of the probe when bound to the proteins was measured in the presence of test compounds or solvent control and the effect on anisotropy determined. Polarization values were read using an Envision plate reader using excitation and emission wavelengths of 590 and 630 nm, respectively. All FP values are expressed as mP units. […]
For each record, write down the corresponding IC50.
Give bare numbers, in nM.

Compound: CCc1cc2ncc(CN3CCC(Nc4ccc(C(=O)NC)nc4)C3)cc2[nH]c1=O (stereo not shown) [Compound 10]
System: Recombinant full length PARP1 (Homo sapiens (Human))
IC50 / nM: 3.1

Compound: CCc1nc2ccc(C(C)N3CC(Oc4ccc(-n5ccnn5)nc4)C3)cc2[nH]c1=O (stereo not shown) [Compound 54]
System: Recombinant full length PARP1 (Homo sapiens (Human))
IC50 / nM: 2.12

Compound: CCc1cc2ncc(CN3CCC(Cc4ccc(C(=O)NC)nc4)C3)cc2[nH]c1=O (stereo not shown) [Compound 7]
System: Recombinant full length PARP1 (Homo sapiens (Human))
IC50 / nM: 7.8

Batch: IC50 for all items listed.
1. CCc1cc2ncc(CN3CC[C@@H](Oc4ccc(C(=O)NC)nc4)C3)cc2[nH]c1=O [Compound 11]
2. CCc1cc2ncc(CN3C[C@H](Oc4ccc(C(=O)NC)nc4)[C@@H](F)C3)cc2[nH]c1=O [Compound 24]
3. CCc1cc2cnc([C@@H](C)N3CC(Oc4ccc(C(=O)NC)nc4)C3)cc2[nH]c1=O (single isomer, unassigned) [Compound 48]
4. CNC(=O)c1ccc(O[C@@H]2CCN(Cc3cnc4cc(C5CC5)c(=O)[nH]c4c3)C2)cn1 (single isomer, unassigned) [Compound 61]

1: 4.8; 2: 7.3; 3: 5.1; 4: 6.62

---

Test: Caco2 (A-B/B-A) permeability
Assay type: in vitro ADME
Settings: human, Caco-2, pH 7.4, basolateral-to-apical, 5 μM, HBSS pH 7.4, 120 min, 37° C.; read-out: Caco2 B-A apparent permeability (Papp)
Provide the recorded Papp B→A at 120 min, 5 μM for the entries that follow.

Compound: CCc1nc2ccc(C(C)N3CC(Oc4ccc(C(=O)NC)nc4)C3)cc2[nH]c1=O (centres unmarked) [Compound 20]
Papp B→A at 120 min, 5 μM: 25.4 ×10⁻⁶ cm/s

Parameter requested: Papp B→A at 120 min, 5 μM. Apply to each item below.
1. CCc1cc2cnc([C@H](C)N3CC(Oc4ccc(C(=O)NC)nc4F)C3)cc2[nH]c1=O (single isomer, unassigned; enantiomer 1) [Compound 49]
2. CCc1cc2ncc(CN3CCC(N(C)c4ccc(C(=O)NC)nc4)CC3)cc2[nH]c1=O [Compound 31]
3. CCc1cc2ncc(CN3CC4CC3CN4c3ccc(C(=O)NC)nc3)cc2[nH]c1=O (centres unmarked) [Compound 37]
4. CCc1cc2ncc(CN3CC[C@@H](N(C)c4ccc(C(=O)NC)nc4)C3)cc2[nH]c1=O (single isomer, unassigned; enantiomer 2) [Compound 17]
5. CCc1nc2ccc([C@H](C)N3CC(Oc4ccc(C(=O)NC)nc4)C3)cc2[nH]c1=O (single isomer, unassigned) [Compound 52]
6. CCc1cc2cnc([C@@H](C)N3CC(Oc4ccc(C(=O)NC)nc4)C3)cc2[nH]c1=O (single isomer, unassigned) [Compound 47]
7. CCc1cc2ncc([C@H](C)N3CC(Oc4ccc(C(=O)NC)nc4)C3)cc2[nH]c1=O [Compound 5]

29.9 ×10⁻⁶ cm/s
30.9 ×10⁻⁶ cm/s
30.2 ×10⁻⁶ cm/s
33.3 ×10⁻⁶ cm/s
31.2 ×10⁻⁶ cm/s
35.6 ×10⁻⁶ cm/s
33.2 ×10⁻⁶ cm/s
